SYSTEM: GST-tagged human ROCK1 catalytic domain 1-477 (Homo sapiens (Human), UniProt Q13464)
Sequence (Q13464 1-477): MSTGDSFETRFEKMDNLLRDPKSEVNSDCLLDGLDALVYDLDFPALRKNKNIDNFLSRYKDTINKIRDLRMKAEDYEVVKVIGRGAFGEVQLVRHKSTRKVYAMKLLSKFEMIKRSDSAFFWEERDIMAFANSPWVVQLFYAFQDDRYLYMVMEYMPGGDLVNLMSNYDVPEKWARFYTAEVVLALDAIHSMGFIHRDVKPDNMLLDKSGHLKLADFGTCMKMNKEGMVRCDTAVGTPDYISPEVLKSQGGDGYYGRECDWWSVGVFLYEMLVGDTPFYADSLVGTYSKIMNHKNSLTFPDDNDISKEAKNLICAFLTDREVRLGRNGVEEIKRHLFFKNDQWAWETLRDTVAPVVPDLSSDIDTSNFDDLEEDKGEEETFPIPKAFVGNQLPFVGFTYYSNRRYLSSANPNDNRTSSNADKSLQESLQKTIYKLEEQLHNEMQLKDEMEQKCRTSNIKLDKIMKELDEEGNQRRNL
TEST_PROTOCOL: Inhibition of Rho-associated protein kinase isoform 1 (LANCE Ultra ULight-CREBtide FRET kinase assay)
Type: biochemical
CONDITION_NOTES: 30 μM was the highest concentration analyzed
Hi there, I'd appreciate the recorded IC50 for every entry that follows.

# count of solved cases: 4
| MOLECULE | SYSTEM | ASSAY_ENDPOINT | ASSAY_VALUE |
| --- | --- | --- | --- |
| O=C(Nc1cc(-c2nnc(Nc3ccc4[nH]ncc4c3)s2)ccn1)c1c[nH]cn1 | GST-tagged human ROCK1 catalytic domain 1-477 (Homo sapiens (Human), UniProt Q13464) | IC50 | > 30 µM |
| CC(=O)Nc1cc(CN(C)C)cc(-c2nnc(Nc3ccc4[nH]ncc4c3Cl)s2)c1.O=C(O)C(F)(F)F [Example 48C] | GST-tagged human ROCK1 catalytic domain 1-477 (Homo sapiens (Human), UniProt Q13464) | IC50 | 1 to 15 µM |
| O=C(Cc1ccon1)Nc1cccc(-c2nnc(Nc3ccc4[nH]ncc4c3Cl)s2)c1 [Example 35BG] | GST-tagged human ROCK1 catalytic domain 1-477 (Homo sapiens (Human), UniProt Q13464) | IC50 | > 30 µM |
| Cn1cc(C(=O)Nc2ccc(-c3nnc(Nc4ccc5[nH]ncc5c4)s3)cc2)cn1 | GST-tagged human ROCK1 catalytic domain 1-477 (Homo sapiens (Human), UniProt Q13464) | IC50 | > 30 µM |

Batch of 5 molecules: report IC50 for each.
1. N#Cc1ccc(CC(=O)Nc2cccc(-c3nnc(Nc4ccc5[nH]ncc5c4Cl)s3)c2)cc1 [Example 35BK]
2. FC(F)(F)c1cn2cccc(-c3nnc(Nc4ccc5[nH]ncc5c4Cl)s3)c2n1 [Example 52C]
3. CS(=O)(=O)Nc1cncc(-c2nnc(Nc3ccc4[nH]ncc4c3)s2)c1
4. COc1cccc(-c2nnc(Nc3ccc4[nH]ncc4c3)s2)c1
5. O=C(Nc1cccc(-c2nnc(Nc3ccc4[nH]ncc4c3)s2)c1)C(O)CO (stereo not drawn) [Example 35CI]

> 30 µM
> 30 µM
1 to 15 µM
> 30 µM
< 1 µM

Batch of 5 molecules: report IC50 for each.
1. c1cc2[nH]ncc2cc1Nc1nnc(N2CCNCC2)s1
2. Cn1cc(C(=O)Nc2cccc(-c3nnc(Nc4ccc5[nH]nc(F)c5c4)s3)c2)cn1 [Example 35BW]
3. N#Cc1cccc(-c2nnc(Nc3ccc4[nH]ncc4c3Cl)s2)c1 [Example 35Z]
4. Cn1cc(C(=O)Nc2cc(-c3nnc(Nc4ccc5[nH]ncc5c4Cl)s3)ccc2C(F)(F)F)cn1 [Example 48N]
5. O=C1Cc2cccc(-c3nnc(Nc4ccc5[nH]ncc5c4Cl)s3)c2N1 [Example 56E]

1: 1 to 15 µM; 2: > 30 µM; 3: > 30 µM; 4: > 30 µM; 5: > 30 µM

Batch of 6 molecules: report IC50 for each.
1. CC(=O)c1ccc(-c2cn3cccc(-c4nnc(Nc5ccc6[nH]ncc6c5Cl)s4)c3n2)cc1
2. O=C(Nc1cc(-c2nnc(Nc3ccc4[nH]ncc4c3Cl)s2)ccn1)c1ccc(F)cc1.O=C(O)C(F)(F)F [Example 35B]
3. Clc1c(Nc2nnc(-c3cccc4c3OCCO4)s2)ccc2[nH]ncc12 [Example 75E]
4. CN(CC(O)CO)C(=O)c1cccc(-c2nnc(Nc3ccc4[nH]ncc4c3)s2)c1 (stereo not drawn)
5. O=C(O)c1cccc(-c2nnc(Nc3ccc4[nH]ncc4c3)s2)c1 [Example A-9]
6. CC(C)NCC(=O)Nc1cncc(-c2nnc(Nc3ccc4[nH]ncc4c3)s2)c1

> 30 µM
< 1 µM
> 30 µM
15 to 30 µM
15 to 30 µM
1 to 15 µM

Batch of 6 molecules: report IC50 for each.
1. CSc1ccc(NC(C)=O)cc1-c1nnc(Nc2ccc3[nH]ncc3c2Cl)s1 [Example 48F]
2. O=C(O)C(F)(F)F.O=C(O)CS(=O)(=O)Nc1cccc(-c2nnc(Nc3ccc4[nH]ncc4c3)s2)c1 [Example 35CD]
3. Cn1cccc(-c2nnc(Nc3ccc4[nH]ncc4c3Cl)s2)c1=O.O=C(O)C(F)(F)F [Example 56H]
4. COc1ccc(C(=O)Nc2cccc(-c3nnc(Nc4ccc5[nH]ncc5c4Cl)s3)c2)cc1 [Example 35BS]
5. CC(=O)Nc1cc(F)c(F)c(-c2nnc(Nc3ccc4[nH]ncc4c3)s2)c1 [Example 35CB]
6. CC(=O)Nc1cc(C(=O)O)cc(-c2nnc(Nc3ccc4[nH]ncc4c3)s2)c1 [Example 48AE]

1: < 1 µM; 2: 1 to 15 µM; 3: > 30 µM; 4: < 1 µM; 5: > 30 µM; 6: < 1 µM

Batch of 5 molecules: report IC50 for each.
1. CC(=O)Nc1cc(-c2nnc(Nc3ccc4[nH]ncc4c3Cl)s2)ccc1-c1ncco1 [Example 48P]
2. CC(C)n1ccnc1-c1cccc(-c2nnc(Nc3ccc4[nH]ncc4c3Cl)s2)c1.O=C(O)C(F)(F)F [Example 46A]
3. Nc1cc(-c2nnc(Nc3ccc4[nH]ncc4c3)s2)ccn1.O=C(O)C(F)(F)F [Example 35CQ]
4. CCN(CC)Cc1cc(NC(C)=O)cc(-c2nnc(Nc3ccc4[nH]ncc4c3Cl)s2)c1.O=C(O)C(F)(F)F [Example 48A]
5. Cn1cc(C(=O)Nc2cc(CC(=O)O)cc(-c3nnc(Nc4ccc5[nH]ncc5c4Cl)s3)c2)cn1 [Example 48R]

["> 30 µM", "< 1 µM", "> 30 µM", "1 to 15 µM", "< 1 µM"]

Batch of 2 molecules: report IC50 for each.
1. CC(=O)Nc1cc(CSC(C)=O)cc(-c2nnc(Nc3ccc4[nH]ncc4c3Cl)s2)c1
2. O=C(Nc1cccc(-c2nnc(Nc3ccc4[nH]ncc4c3)s2)c1)c1cn[nH]c1

1. > 30 µM
2. > 30 µM
